Measured FRAP (TE) values are reported for all entries that follow.
- Protocol text: Ferric reducing antioxidant power (FRAP) assay
- Reported conditions: isolated components; mM Trolox equivalents per gram
The figure you give is taken to be in mM/g; do not add the unit.

Some compounds with recorded FRAP (TE):
INSERT INTO assay_data (compound, observed_result) VALUES
  ('O=Cc1ccc(CO)o1 [5-HMF (1), 5-hydroxymethylfurfural]', 26.70),
  ('O=c1c(O[C@@H]2O[C@H](CO)[C@@H](O)[C@H](O)[C@H]2O)c(-c2ccc(O)c(O)c2)oc2cc(O)cc(O)c12 [Isoquercetin (3), isoquercetin]', 3898.88),
  ('Cc1cc(C(C)(C)C)c(O)c(C(C)(C)C)c1 [BHT, Butylated hydroxytoluene, reference compound]', 2896.93);

## Task Supply recorded FRAP (TE) for COc1cc2ccc(=O)oc2cc1O [Scopoletin (2), scopoletin] here.
## Result 2892.97

## Task Supply recorded FRAP (TE) for O=c1c(O[C@@H]2O[C@H](CO)[C@H](O)[C@H](O)[C@H]2O)c(-c2ccc(O)c(O)c2)oc2cc(O)cc(O)c12 [Hyperoside (4), hyperoside] here.
## Result 3246.93

## Task Supply recorded FRAP (TE) for C[C@@H]1O[C@@H](OC[C@H]2O[C@@H](Oc3c(-c4ccc(O)c(O)c4)oc4cc(O)cc(O)c4c3=O)[C@H](O)[C@@H](O)[C@@H]2O)[C@H](O)[C@H](O)[C@H]1O [Rutin (5), rutin] here.
## Result 2221.33

----------
- Target system: acetylcholinesterase (AChE) (Electrophorus electricus)
- Construct: purchased Sigma-Aldrich
- Sequence (O42275 24-633): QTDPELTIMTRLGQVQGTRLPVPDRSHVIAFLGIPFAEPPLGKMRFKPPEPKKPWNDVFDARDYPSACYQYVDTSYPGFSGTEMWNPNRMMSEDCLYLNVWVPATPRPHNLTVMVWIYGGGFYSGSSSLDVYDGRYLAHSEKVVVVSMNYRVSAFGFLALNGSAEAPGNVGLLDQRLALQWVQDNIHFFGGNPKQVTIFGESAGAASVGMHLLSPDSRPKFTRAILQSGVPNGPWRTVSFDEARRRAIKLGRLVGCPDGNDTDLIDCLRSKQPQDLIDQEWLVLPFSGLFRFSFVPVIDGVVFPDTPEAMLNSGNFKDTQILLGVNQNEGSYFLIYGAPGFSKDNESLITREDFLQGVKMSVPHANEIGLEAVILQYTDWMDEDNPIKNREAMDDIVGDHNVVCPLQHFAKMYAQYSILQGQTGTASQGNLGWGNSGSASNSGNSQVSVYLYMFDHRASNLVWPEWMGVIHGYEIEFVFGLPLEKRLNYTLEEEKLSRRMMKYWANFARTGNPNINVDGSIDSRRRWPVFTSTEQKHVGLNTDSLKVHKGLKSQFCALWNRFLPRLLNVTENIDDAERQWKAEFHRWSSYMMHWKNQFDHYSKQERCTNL
- Protocol text: biochemical
Measured pIC50 values are reported for all entries that follow.
Just the number, please; pIC50 means minus log10 of the concentration in mol/L.

Some molecules with recorded pIC50:
INSERT INTO assay_data (molecule, observed_result) VALUES
  ('COc1cc2ccc(=O)oc2cc1O', 4.49),
  ('O=c1c(O[C@@H]2O[C@H](CO)[C@H](O)[C@H](O)[C@H]2O)c(-c2ccc(O)c(O)c2)oc2cc(O)cc(O)c12 [Hyperoside (4), hyperoside]', 3.92),
  ('O=c1c(O[C@@H]2O[C@H](CO)[C@@H](O)[C@H](O)[C@H]2O)c(-c2ccc(O)c(O)c2)oc2cc(O)cc(O)c12', 4.64);

Attention now turns to another entry.
## Task Supply recorded pIC50 for C[C@@H]1O[C@@H](OC[C@H]2O[C@@H](Oc3c(-c4ccc(O)c(O)c4)oc4cc(O)cc(O)c4c3=O)[C@H](O)[C@@H](O)[C@@H]2O)[C@H](O)[C@H](O)[C@H]1O here.
## Result 4.48

----------
Measured IC50 values are reported for all entries that follow.
- Tested on: LPS-induced NO production in RAW264.7 macrophages
- Protocol text: Nitric oxide inhibitory assay
- Type: cell-based, Murine
- Reported conditions: Mus musculus; isolated compounds; LPS-induced NO, RAW264.7; read-out: Nitric Oxide IC50
The figure you give is taken to be in µM; do not add the unit.

Some compounds with recorded IC50:
INSERT INTO measurements (compound, readout, observed_result) VALUES
  ('COc1cc2ccc(=O)oc2cc1O', 'IC50', 36.3),
  ('O=Cc1ccc(CO)o1 [5-HMF (1), 5-hydroxymethylfurfural]', 'IC50', 34.9);

Attention now turns to another entry.
## Task Supply recorded IC50 for O=c1c(O)c(-c2ccc(O)c(O)c2)oc2cc(O)cc(O)c12 [Quercetin, quercetin, reference compound] here.
## Result 18.3
